- targetDesc: Prostaglandin G/H synthase 2 (Ovis aries) (UniProt P79208)
- Sequence (P79208 whole entry): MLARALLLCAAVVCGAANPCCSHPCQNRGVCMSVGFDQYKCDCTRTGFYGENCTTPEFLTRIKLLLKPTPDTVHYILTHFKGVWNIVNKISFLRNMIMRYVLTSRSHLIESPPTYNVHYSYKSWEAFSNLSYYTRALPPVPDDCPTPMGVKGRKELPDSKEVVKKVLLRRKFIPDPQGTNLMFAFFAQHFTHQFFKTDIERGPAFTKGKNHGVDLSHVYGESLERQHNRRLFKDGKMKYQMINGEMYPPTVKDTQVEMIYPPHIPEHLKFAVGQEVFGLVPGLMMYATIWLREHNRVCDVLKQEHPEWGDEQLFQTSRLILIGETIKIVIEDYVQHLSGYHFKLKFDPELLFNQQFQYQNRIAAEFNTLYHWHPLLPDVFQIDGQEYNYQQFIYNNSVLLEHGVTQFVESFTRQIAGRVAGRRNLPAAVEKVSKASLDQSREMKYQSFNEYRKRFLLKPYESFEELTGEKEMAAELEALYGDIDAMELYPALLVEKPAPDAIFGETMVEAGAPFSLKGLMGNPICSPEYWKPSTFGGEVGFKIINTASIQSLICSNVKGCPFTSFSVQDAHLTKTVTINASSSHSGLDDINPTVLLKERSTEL
- testSettings: 30 uM
- Description: Inhibition of ovine COX2 using arachidonic acid as substrate at 30 uM preincubated for 10 mins before substrate addition measured after 5 mins by EIA
Decide using inhibition: a value greater than or equal to 60% is met, a smaller one is not met.

Use the examples below as a reference point.
> print(dat)
                                   compound                                targetdesc  qualitativelabel
1           CCOc1cccc2cc(C)c(C(C)=O)c(O)c12  Prostaglandin G/H synthase 2 (Ovis aries) (UniProt P79208)           not met
2  CCCCOc1cccc2c1C(=O)c1c(OCCCC)cc(C)cc1C2=O  Prostaglandin G/H synthase 2 (Ovis aries) (UniProt P79208)           not met
3           CCOc1c(C(C)=O)c(C)cc2cccc(O)c12  Prostaglandin G/H synthase 2 (Ovis aries) (UniProt P79208)           not met

Moving on to the next compound.
Q: Reported inhibition at or above 60%? `CC(=O)c1c(C)cc2cccc(O)c2c1OCc1cccc(Cl)c1`
A: met

====

- targetDesc: Prostaglandin G/H synthase 1 (Ovis aries, UniProt P05979)
- Sequence (P05979 whole entry): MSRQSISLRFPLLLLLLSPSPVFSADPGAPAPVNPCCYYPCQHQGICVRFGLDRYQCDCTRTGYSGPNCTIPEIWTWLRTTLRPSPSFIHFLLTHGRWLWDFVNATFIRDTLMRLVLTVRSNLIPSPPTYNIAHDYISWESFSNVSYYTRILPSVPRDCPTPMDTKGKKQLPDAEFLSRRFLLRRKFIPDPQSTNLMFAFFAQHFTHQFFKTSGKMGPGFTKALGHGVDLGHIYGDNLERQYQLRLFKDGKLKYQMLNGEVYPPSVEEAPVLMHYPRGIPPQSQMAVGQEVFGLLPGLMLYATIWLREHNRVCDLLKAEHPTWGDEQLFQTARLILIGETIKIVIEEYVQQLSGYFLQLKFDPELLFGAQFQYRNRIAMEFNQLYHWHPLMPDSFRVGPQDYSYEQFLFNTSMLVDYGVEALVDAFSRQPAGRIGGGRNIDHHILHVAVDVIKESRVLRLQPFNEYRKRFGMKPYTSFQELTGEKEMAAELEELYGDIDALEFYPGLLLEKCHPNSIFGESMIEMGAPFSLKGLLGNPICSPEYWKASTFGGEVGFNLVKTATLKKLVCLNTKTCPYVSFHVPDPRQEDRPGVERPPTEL
The following compounds are listed with their measured IC50 values.
Give a bare numeral; the unit µM is implied.

> print(dat)
                                   compound                                targetdesc  reportedresult
1  CC(=O)c1c(C)cc2cccc(OCc3cccc(Cl)c3)c2c1O  Prostaglandin G/H synthase 1 (Ovis aries, UniProt P05979)            22.2

As a next step, examine the compound that follows.
Q: What is its IC50 for Prostaglandin G/H synthase 1 (Ovis aries, UniProt P05979)? Entry: `COCOc1cccc2cc(C)c(C(C)=O)c(O)c12`
A: 17.2

====

The following compounds are listed with their measured inhibition in vivo at 150 µmol/kg values.
- System: Rattus norvegicus
- measurementDescription: Antiinflammatory activity in Sprague-Dawley rat assessed as inhibition of carrageenan-induced paw edema at 150 umol/kg, po administered 1 hr before carrageenan challenge measured after 3 hrs
- Format: functional
Give a bare numeral; the unit % is implied.

Illustrative cases are given below, each with its answer.
> print(dat)
                                   compound                    observationtype  units  reportedresult
1  C=CCOc1cccc2c1C(=O)c1c(OCC=C)cc(C)cc1C2=O  inhibition in vivo at 150 µmol/kg      %            35.6
2  CC(=O)c1c(C)cc2cccc(OCc3cccc(Cl)c3)c2c1O  inhibition in vivo at 150 µmol/kg      %            26.6
3    CC(=O)c1c(C)cc2cccc(OCc3ccccc3Br)c2c1O  inhibition in vivo at 150 µmol/kg      %            25.5
4          COCOc1cccc2cc(C)c(C(C)=O)c(O)c12  inhibition in vivo at 150 µmol/kg      %            36.4

As a next step, examine the compound that follows.
Q: Need inhibition in vivo at 150 µmol/kg, item `Cc1cc(OCc2ccccc2)c2c(c1)C(=O)c1cccc(OCc3ccccc3)c1C2=O`
A: 28.2
